# Tested on: EGFR Del19/T790M/C797S (BaF3-DTC cells)
# experiment-description: EGFR degradation HTRF assay, BaF3-DTC cells
# Assay type: cell-based
# condition-description: 16h treatment, maximum percentage of degradation
# Method: BaF3 WT(wild type), BaF3-LTC(L858R/T790M/C797S) and BaF3-DTC(Del19/T790M/C797S) cells are treated with compounds diluted in 0.2% DMSO cell culture medium and incubate for 16h, 37° C., 5% CO2, H1975-#36, H1975-#28, H1975-#23 and HCC827 cells are treated with compounds diluted in 0.2% DMSO cell culture medium on day 2, incubate for 16h, 37° C., 5% CO2.the final concentriation of compounds in all assay is start with 10 uM, 5-fold dilution, total 8 doses were included. […]
// returns no (0) unless DTC Dmax (%) is strictly below 90%, in which case yes (1)

>  <molecule>
CCc1cc(Nc2ncc(Br)c(Nc3ccc4nccnc4c3P(C)(C)=O)n2)c(OC)cc1N1CCC(N2CCN(C(=O)[C@H]3CCN(c4ccc(C5CCC(=O)NC5=O)cc4)C3)CC2)CC1 (stereo partly shown)

>  <discrete-label>
yes (1)

$$$$
>  <molecule>
CCc1cc(Nc2ncc(Br)c(Nc3ccc4nc(C5CC5)ccc4c3P(C)(C)=O)n2)c(OC)cc1N1CCC(N2CCN(CCc3cc(F)c(C4CCC(=O)NC4=O)c(F)c3)CC2)CC1 (stereo not shown)

>  <discrete-label>
no (0)

$$$$
>  <molecule>
CCc1cc(Nc2ncc(Br)c(Nc3ccc4nccnc4c3P(C)(C)=O)n2)c(OC)cc1N1CCC(N2CCN(CCc3ccc4nn(C5CCC(=O)NC5=O)cc4c3)CC2)CC1 (stereo not shown)

>  <discrete-label>
no (0)

$$$$
>  <molecule>
CCc1cc(Nc2ncc(Br)c(Nc3ccc4nccnc4c3P(C)(C)=O)n2)c(OC)cc1N1CCC(N2CCN(CC3CN(c4cc(F)c(C5CCC(=O)NC5=O)c(F)c4)C3)CC2)CC1 (stereo not shown)

>  <discrete-label>
no (0)

$$$$
>  <molecule>
CCc1cc(Nc2ncc(Br)c(Nc3ccc4nccnc4c3P(C)(C)=O)n2)c(OC)cc1N1CCC(N2CCN(CCc3cc(F)c(C4CCC(=O)NC4=O)cc3Cl)CC2)CC1 (stereo not shown)

>  <discrete-label>
yes (1)

$$$$

----------
# tgt: EGFR (HCC827 cells) (Homo sapiens, UniProt P00533, DEL746-750)
# Construct: endogenous in cells; host or cells: HCC827
# Sequence (P00533 with tags, fused parts or gaps DEL746-750): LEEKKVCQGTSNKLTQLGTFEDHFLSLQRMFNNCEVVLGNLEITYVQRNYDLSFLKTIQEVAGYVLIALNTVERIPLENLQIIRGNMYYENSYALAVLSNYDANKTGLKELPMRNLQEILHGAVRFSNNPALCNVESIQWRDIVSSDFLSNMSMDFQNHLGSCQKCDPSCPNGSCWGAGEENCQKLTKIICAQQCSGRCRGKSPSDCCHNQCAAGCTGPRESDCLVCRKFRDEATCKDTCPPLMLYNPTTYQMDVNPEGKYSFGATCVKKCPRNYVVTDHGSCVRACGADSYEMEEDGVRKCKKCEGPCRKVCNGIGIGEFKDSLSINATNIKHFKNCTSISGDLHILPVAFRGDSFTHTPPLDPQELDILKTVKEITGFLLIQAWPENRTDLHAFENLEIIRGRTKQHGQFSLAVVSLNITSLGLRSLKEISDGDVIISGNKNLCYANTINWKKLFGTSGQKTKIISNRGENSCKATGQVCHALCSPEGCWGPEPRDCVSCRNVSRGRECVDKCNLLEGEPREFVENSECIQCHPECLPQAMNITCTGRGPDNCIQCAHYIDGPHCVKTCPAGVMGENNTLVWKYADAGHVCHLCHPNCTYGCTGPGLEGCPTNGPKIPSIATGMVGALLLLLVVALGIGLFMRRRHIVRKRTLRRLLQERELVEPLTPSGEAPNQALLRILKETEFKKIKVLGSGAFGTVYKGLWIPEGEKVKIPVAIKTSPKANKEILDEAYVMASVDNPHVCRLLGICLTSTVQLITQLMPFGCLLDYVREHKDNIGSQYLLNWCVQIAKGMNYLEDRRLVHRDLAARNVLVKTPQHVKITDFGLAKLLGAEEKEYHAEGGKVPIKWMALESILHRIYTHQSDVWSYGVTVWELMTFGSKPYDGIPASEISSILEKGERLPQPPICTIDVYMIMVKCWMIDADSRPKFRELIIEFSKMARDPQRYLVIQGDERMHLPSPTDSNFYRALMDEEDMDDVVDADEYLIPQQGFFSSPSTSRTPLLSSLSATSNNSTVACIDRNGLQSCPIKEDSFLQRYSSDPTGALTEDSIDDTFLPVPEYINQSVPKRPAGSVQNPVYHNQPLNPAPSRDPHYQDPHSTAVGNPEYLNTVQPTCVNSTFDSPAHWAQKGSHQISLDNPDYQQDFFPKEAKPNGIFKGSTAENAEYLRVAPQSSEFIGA
# experiment-description: EGFR degradation HTRF assay, HCC827 cells
# Type: cell-based
# condition-description: HCC827, 16h treatment, maximum percentage of degradation

>  <compound>
COc1cc(N2CCC(N3CCN(CCc4ccc(NC5CCC(=O)NC5=O)cc4)CC3)CC2)ccc1Nc1ncc(Cl)c(Nc2ccccc2NS(C)(=O)=O)n1 (stereo not shown)

>  <Dmax (%)>
88.9

$$$$
>  <compound>
COc1cc(N2CCC(N3CCN(CCc4ccc(N5CCC(=O)NC5=O)cc4)CC3)CC2)ccc1Nc1ncc(Cl)c(Nc2ccccc2N(C)S(C)(=O)=O)n1

>  <Dmax (%)>
80.8

$$$$
>  <compound>
CCc1cc(Nc2ncc(Br)c(Nc3ccc4nccnc4c3P(C)(C)=O)n2)c(OC)cc1N1CCC(N2CCN(C(=O)C3CCN(CC4CCN(c5ccc6c(c5)C(=O)N(C5CCC(=O)NC5=O)C6=O)CC4)CC3)CC2)CC1 (stereo not shown)

>  <Dmax (%)>
86.3

$$$$
>  <compound>
COc1cc(N2CCC(N3CCN(C(=O)CC4CCN(c5ccc(C6CCC(=O)NC6=O)cc5)CC4)CC3)CC2)ccc1Nc1ncc(Cl)c(Nc2ccccc2P(C)(C)=O)n1 (stereo not shown)

>  <Dmax (%)>
79.3

$$$$

----------
Let's look at some compounds and their measured DTC Dmax (%).
# Test system: EGFR Del19/T790M/C797S (BaF3-DTC cells)
# experiment-description: EGFR degradation HTRF assay, BaF3-DTC cells
# Format: cell-based
# condition-description: 16h treatment, maximum percentage of degradation
measurement-type: DTC Dmax (%)

>  <compound>
CCc1cc(Nc2ncc(Br)c(Nc3ccc4nccnc4c3P(C)(C)=O)n2)c(OC)cc1N1CCC(N2CCN(CCc3cc(F)c(C4CCC(=O)NC4=O)c(Cl)c3)CC2)CC1 (centres unmarked)

>  <tgt>
EGFR Del19/T790M/C797S (BaF3-DTC cells)

>  <measured-number>
93.21

$$$$
>  <compound>
CCc1cc(Nc2ncc(Br)c(Nc3ccc4nccnc4c3P(C)(C)=O)n2)c(OC)cc1N1CCC(N2CCN(C(=O)C3CN(c4cccc(C5CCC(=O)NC5=O)c4)C3)CC2)CC1 (centres unmarked)

>  <tgt>
EGFR Del19/T790M/C797S (BaF3-DTC cells)

>  <measured-number>
73.42

$$$$
>  <compound>
CCc1cc(Nc2ncc(Br)c(Nc3ccc4nccnc4c3P(C)(C)=O)n2)c(OC)cc1N1CCC(N2CCN(C[C@@H]3CCN(c4ccc5c(c4)C(=O)N(C4CCC(=O)NC4=O)C5=O)C3)CC2)CC1 (some centres unmarked)

>  <tgt>
EGFR Del19/T790M/C797S (BaF3-DTC cells)

>  <measured-number>
81.09

$$$$
>  <compound>
CCc1cc(Nc2ncc(Br)c(Nc3ccc4ncn(C)c(=O)c4c3P(C)(C)=O)n2)c(OC)cc1N1CCC(N2CCN(C(=O)C3CN(c4ccc5c(c4)CN(C4CCC(=O)NC4=O)C5=O)C3)CC2)CC1 (centres unmarked)

>  <tgt>
EGFR Del19/T790M/C797S (BaF3-DTC cells)

>  <measured-number>
91.27

$$$$
>  <compound>
COc1cc(N2CCC(N3CCN(CCC4CCN(c5cc(F)c(C6CCC(=O)NC6=O)c(F)c5)CC4)CC3=O)CC2)c(C)cc1Nc1ncc(Br)c(Nc2ccc3nccnc3c2P(C)(C)=O)n1 (centres unmarked)

>  <tgt>
EGFR Del19/T790M/C797S (BaF3-DTC cells)

>  <measured-number>
93.59

$$$$

----------
# reported Dmax; entries follow
# tgt: EGFR L858R/C797S (BaF3 LC cells) (Homo sapiens, UniProt P00533, C797S/L858R)
# Construct: expressed in transfected cells; host or cells: BaF3
# Sequence (P00533 25-1210 C797S/L858R): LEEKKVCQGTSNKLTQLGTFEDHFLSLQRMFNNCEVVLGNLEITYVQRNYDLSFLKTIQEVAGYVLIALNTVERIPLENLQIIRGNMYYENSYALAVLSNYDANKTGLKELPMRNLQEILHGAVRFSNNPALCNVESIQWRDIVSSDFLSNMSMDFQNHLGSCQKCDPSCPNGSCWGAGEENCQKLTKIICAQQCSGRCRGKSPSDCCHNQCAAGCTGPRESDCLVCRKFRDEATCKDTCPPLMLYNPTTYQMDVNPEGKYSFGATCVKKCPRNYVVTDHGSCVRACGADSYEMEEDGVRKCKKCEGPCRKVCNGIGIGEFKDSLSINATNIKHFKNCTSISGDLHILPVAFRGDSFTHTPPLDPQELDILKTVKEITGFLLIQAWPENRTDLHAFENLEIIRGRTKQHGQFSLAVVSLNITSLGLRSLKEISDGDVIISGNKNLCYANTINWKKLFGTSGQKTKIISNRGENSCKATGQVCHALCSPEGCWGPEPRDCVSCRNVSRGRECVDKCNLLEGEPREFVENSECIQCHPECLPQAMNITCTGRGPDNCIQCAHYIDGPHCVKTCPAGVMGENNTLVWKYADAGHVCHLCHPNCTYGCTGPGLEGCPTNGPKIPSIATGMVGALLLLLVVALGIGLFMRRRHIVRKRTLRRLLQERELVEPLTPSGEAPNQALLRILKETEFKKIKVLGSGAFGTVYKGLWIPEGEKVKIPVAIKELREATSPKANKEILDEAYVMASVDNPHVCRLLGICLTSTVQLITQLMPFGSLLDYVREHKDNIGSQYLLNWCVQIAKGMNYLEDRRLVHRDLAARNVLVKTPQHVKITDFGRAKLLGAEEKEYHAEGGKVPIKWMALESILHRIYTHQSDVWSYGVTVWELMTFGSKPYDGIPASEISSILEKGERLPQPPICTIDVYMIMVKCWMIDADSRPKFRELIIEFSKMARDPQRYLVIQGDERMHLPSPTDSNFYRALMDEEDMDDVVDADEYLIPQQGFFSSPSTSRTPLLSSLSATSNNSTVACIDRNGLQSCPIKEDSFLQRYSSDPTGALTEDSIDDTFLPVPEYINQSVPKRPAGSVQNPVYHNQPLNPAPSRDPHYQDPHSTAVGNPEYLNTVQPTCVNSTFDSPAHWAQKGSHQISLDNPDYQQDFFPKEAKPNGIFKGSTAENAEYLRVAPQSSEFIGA
# experiment-description: EGFR degradation HTRF assay, BaF3 LC cells
# Format: cell-based
# condition-description: BaF3 LC, 16h treatment, maximum percentage of degradation; read-out: BaF3 LC Dmax (%)

>  <compound>
CCOc1cc(N2CCC(N3CCN(CCc4ccc5c(c4)oc(=O)n5C4CCC(=O)NC4=O)CC3)CC2)c(CC)cc1Nc1ncc(Br)c(Nc2cc(F)c3nc(CC)ccc3c2P(C)(C)=O)n1 (stereo not drawn)

>  <Dmax [%]>
92

$$$$
>  <compound>
CCOc1cc(N2CCC(N3CCN(CCc4ccc5c(c4)oc(=O)n5C4CCC(=O)NC4=O)CC3)CC2)c(CC)cc1Nc1ncc(Br)c(Nc2ccc3nc(C)ccc3c2P(C)(C)=O)n1 (stereo not drawn)

>  <Dmax [%]>
88.1

$$$$
>  <compound>
CCOc1cc(N2CCC(N3CCN(CCc4cc(F)c([C@H]5CCC(=O)NC5=O)c(F)c4)CC3)CC2)c(CC)cc1Nc1ncc(Br)c(Nc2cc(F)c3nc(C)ccc3c2P(C)(C)=O)n1

>  <Dmax [%]>
90.2

$$$$

----------
# System: EGFR Del19/T790M/C797S (H1975-clone #28)
# experiment-description: EGFR degradation HTRF assay, H1975-clone #28 DTC cells
# Assay type: cell-based
# condition-description: H1975 # 28 DTC cells; maximum percentage of inhibition (degradation)
# Method: H1975-clone #28(Del19/T790M/C797S) and H1975-clone #23(Del19/C797S). EGFR-Del19/T790M/C797S and EGFR-Del19/C797S were stably expressed in H1975 cell lines by lentivirus-mediated over-expression, respectively. […] The inhibition (degradation) percentage of the compound was calculated by the following equation: Inhibition percentage of Compound=100-100×(Signal-low control)/(High control-low control), wherein signal=each test compound group […]

>  <molecule>
CCOc1cc(N2CCC(N3CCN(CCc4cc(F)cc5c4n(C)c(=O)n5C4CCC(=O)NC4=O)CC3)CC2)c(CC)cc1Nc1ncc(Br)c(Nc2ccc3nc(CC)ccc3c2P(C)(C)=O)n1 (centres unmarked)

>  <Dmax (%) H1975 # 28 DTC>
78.37

$$$$
>  <molecule>
CCOc1cc(N2CCC(N3CCN(CCc4cc5oc(=O)n(C6CCC(=O)NC6=O)c5cc4F)CC3)CC2)c(CC)cc1Nc1ncc(Br)c(Nc2ccc3nc(CC)ccc3c2P(C)(C)=O)n1 (centres unmarked)

>  <Dmax (%) H1975 # 28 DTC>
70.88

$$$$
>  <molecule>
CCOc1cc(N2CCC(N3CCN(CCc4cc(F)c([C@H]5CCC(=O)NC5=O)c(F)c4)CC3)CC2)c(CC)cc1Nc1ncc(Br)c(Nc2ccc3nc(CC)ccc3c2P(C)(C)=O)n1

>  <Dmax (%) H1975 # 28 DTC>
81.31

$$$$
>  <molecule>
CCc1cc(Nc2ncc(Br)c(Nc3cc(F)c4nc(C)ccc4c3P(C)(C)=O)n2)c(OC)cc1N1CCC(N2CCN(C(=O)[C@@H]3CCN(c4cc(F)c([C@H]5CCC(=O)NC5=O)c(F)c4)C3)CC2)CC1

>  <Dmax (%) H1975 # 28 DTC>
65

$$$$
>  <molecule>
CCOc1cc(N2CCC(N3CCN(CCc4ccc5c(oc(=O)n5C5CCC(=O)NC5=O)c4F)CC3)CC2)c(CC)cc1Nc1ncc(Br)c(Nc2ccc3nc(CC)ccc3c2P(C)(C)=O)n1 (centres unmarked)

>  <Dmax (%) H1975 # 28 DTC>
77.45

$$$$

Hello, the source for this data is patent US20230265116A1, in case you need it.
